protocolDetails: Pharmacokinetic evaluation in ICR mice after intragastric administration (plasma, LC/MS/MS)
Type: in vivo
runParameters: mouse, po, male ICR mice, i.g., 20 mg/kg, read-out: Plasma concentration Cmax
assayEndpoint: Cmax

compound="Cn1c(CN2Cc3ccccc3C2)ccc(OCC2CCN(S(C)(=O)=O)CC2)c1=O [Compound 1]" reportedresult="9720 ng/mL"
compound="CS(=O)(=O)N1CCC(COc2coc(CN3Cc4ccccc4C3)cc2=O)CC1 [Comparative Example 1, reference compound]" reportedresult="7950 ng/mL"

The record that follows has no Cmax shown yet.
Incoming: Return value of Cmax for input CCn1c(CN2Cc3ccccc3C2)ccc(OCC2CCN(S(N)(=O)=O)CC2)c1=O [Compound 28] , no commentary.
Outgoing: 5440 ng/mL
